meta.source: PubChem BioAssay

# PROTOCOL_DETAILS: OD615 S. cerevisiae growth inhibition, permissive medium, pilot counter-assay, permissive growth control for S. cerevisiae lifespan shortening project (AID 705)
# TEST_CONTEXT: OD615, 24 h, at 10 µM
Activity calls are given as the source filed them.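 The calls were made as follows: active = growth inhibition above 25% in both replicates, a cutoff set 3 SD above the mean; inconclusive = above 25% in only one replicate; inactive = the rest.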
API: response.call in class 1 for active, class 0 for inactive

A selection of reference data follows.
>>> print(df.to_string())
                                   compound  qualitative_label
0  O=C1C2CC=C(Cl)CC2C(=O)N1CC1Cc2ccccc2CO1 (configuration not stated)            class 0
1  CCCCC(CC)CNC(=O)c1cccs1 (configuration not stated)            class 0

Task item: How did this test come out for `O=C(Cn1nc(-c2ccc(Cl)cc2)ccc1=O)NCCN1CCOCC1` ?
Reply: class 0

Task item: And what about the compound `CCN(CC)S(=O)(=O)c1ccc(C(=O)Nc2ccc(OCC(=O)N3CCOCC3)cc2)cc1` ?
Reply: class 0

Task item: What do you get for `CCn1c(-c2ccccc2O)n[nH]c1=S` ?
Reply: class 0

Task item: Now try COc1ccc(N2C(=O)C3CCCN3C2c2ccccc2OC)cc1 (configuration not stated) .
Reply: class 0

Task item: Another: c1coc(C2Nc3ccccc3-c3nc4ccccc4n32)c1 (configuration not stated)
Reply: class 0

Task item: Next up: `CCCCn1c(CCNC(=O)CCC)nc2ccccc21`
Reply: class 0

* * *

# PROTOCOL_DETAILS: RAM signaling pathway blockade in yeast – S. cerevisiae, Pdr1DBD-CYC8 efflux-inhibited sensitized strain, primary screen (AID 1298);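 also: 0% = DMSO untreated cells without growth and 100% = 10 µM 1-NA-PP1 full growth; higher means more yeast growth rescued from 5-FOA killing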
# TEST_CONTEXT: S. cerevisiae cbk1-as DSE1-URA3 strain, 5-FOA growth OD615, 2 d; at 50 µM; active compounds read high
Could you label it rule met if measured RAM network inhibition is 6% or higher, and rule not met otherwise?

In [3]: df
Out[3]:
                                   compound  qualitative_label
0  Nc1nc(N2CCOCC2)nc(N(c2ccccc2)c2ccccc2)n1       rule not met

Task item: Check if RAM network inhibition >= 6% (inclusive). Item: `COc1ccc(N2CCN(S(=O)(=O)c3cccc4cccnc34)CC2)cc1`
Reply: rule not met

Task item: Same thing, different compound: `CCOC(=O)CNC(=O)c1c2c(nc3ccccc13)CCCC2`
Reply: rule not met

Task item: Same again, this time with `O=c1c2ccccc2nnn1CSc1nnc(-c2ccco2)o1`
Reply: rule not met

Task item: Thanks! And COc1ccc(-n2c(SCC(=O)Nc3nccs3)nc3c(c2=O)SC(C)C3)cc1 (stereo not drawn) ?
Reply: rule met

* * *

# PROTOCOL_DETAILS: RAM signaling pathway blockade in yeast – S. cerevisiae, Pdr1DBD-CYC8 efflux-inhibited sensitized strain, primary screen (AID 1298);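 also: 0% = DMSO untreated cells without growth and 100% = 10 µM 1-NA-PP1 full growth; higher means more yeast growth rescued from 5-FOA killing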
# TEST_CONTEXT: S. cerevisiae cbk1-as DSE1-URA3 strain, 5-FOA growth OD615, 2 d; at 50 µM; active compounds read high
METRIC_NAME: RAM network inhibition (%)
One number for each entry, in %.

In [3]: df
Out[3]:
                                   compound  result
0  COCCOC(=O)C1=C(C)NC2=C(C(=O)CCC2)C1c1ccc(N(C)C)cc1 (stereo unspecified)    4.47
1  COc1ccc(NC(=O)C2CCN(S(=O)(=O)c3ccc(C)cc3)CC2)cc1OC    4.75
2  CCOC(=O)C1CCCN(c2c(Nc3cccc(C)c3)c(=O)c2=O)C1 (stereo unspecified)    2.72
3        O=C(CCCOc1ccccc1)Nc1ccc2c(c1)OCCO2    3.58
4  COc1ccc(CNC(=O)CS(=O)Cc2nc(-c3ccccc3C)oc2C)cc1 (stereo unspecified)    1.98
5  CC(C)C(C(=O)NC(C)(C)C)N1C(=O)c2ccccc2C1=O (stereo unspecified)    12.4

Look at each compound and report its RAM network inhibition.
1. O=C(O)CCc1n[nH]c(=S)[nH]c1=O
2. CS(=O)(=O)c1ccc2nc(NC(=O)C3CCCCC3)sc2c1
3. Cc1cccc(N2C(=O)SC(N(CC(=O)O)c3cccc(C)c3)C2=O)c1 (stereo unspecified)
4. O=C(c1cccc2c1-c1ccccc1/C2=N/O)N1CCCCC1
5. COc1ccc(Nc2cc(C)nc3nc(C)nn23)c(OC)c1

Reply:
1: -0.69; 2: 0.41; 3: 5.06; 4: 4.23; 5: 0.32

Please supply RAM network inhibition for each of the following items, keeping them in order.
1. FC(F)C(F)(F)C1=CC(c2ccccc2)=NCCN1
2. CCOC(=O)CNC(=O)c1cn(CC(C)C)c(=O)c2cc(OC)c(OC)cc12
3. CCOC(=O)N1CCN(C(=O)Cn2ncc3c2-c2ccccc2OC3)CC1
4. O=C(NCc1ccc(F)cc1)c1cnc2n(c1=O)CCS2

Reply:
2.09
4.17
-1.43
-0.84

Below are 4 compounds. Give each one its RAM network inhibition.
1. Oc1cccc(/C=N/c2c(-c3ccco3)nc3ccccn23)c1
2. CC1CCN(CC(C)OC(=O)c2ccc3c(c2)OCCO3)CC1 (stereo unspecified)
3. Cc1ccc(NC(=O)CSc2nnc(Cn3c(=O)sc4ccccc43)n2C)cc1Cl
4. Cc1ccc(-n2ncc3c(NCCCN4CCOCC4)ncnc32)c(C)c1

Reply:
[5.22, 3.4, 4.65, 0.42]

Each compound below has a reported value. Please supply its RAM network inhibition.
1. C=C(C)Cn1c(SCC(=O)O)nc2c1c(=O)[nH]c(=O)n2C
2. CCCOc1ccc(N2CC(C(=O)Nc3ccccc3OC)CC2=O)cc1 (stereo unspecified)

Reply:
1: 3.24; 2: 2.24

For every item below, please supply its RAM network inhibition.
1. COc1cccc(NC(=O)CSc2nnc(-c3ccc(C)cc3)o2)c1
2. COc1ccc(OC)c2sc(NC(=O)c3ccc(Cl)s3)nc12
3. O=C1Nc2ccccc2C(O)(C(=O)NCc2ccco2)N1c1ccc(Cl)cc1 (stereo unspecified)
4. COc1ccccc1N1CCN(C(=O)c2cc3c(=O)n(C)c4ccccc4c3n2C)CC1
5. Cn1c(C(=O)NCc2ccccn2)cc2c(=O)n(C)c3ccccc3c21

Reply:
1: 4; 2: 5.85; 3: 4.83; 4: -0.26; 5: -0.15

* * *

# PROTOCOL_DETAILS: RAM signaling pathway blockade in yeast – S. cerevisiae, Pdr1DBD-CYC8 efflux-inhibited sensitized strain, primary screen (AID 1298);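 also: 0% = DMSO untreated cells without growth and 100% = 10 µM 1-NA-PP1 full growth; higher means more yeast growth rescued from 5-FOA killing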
# TEST_CONTEXT: S. cerevisiae cbk1-as DSE1-URA3 strain, 5-FOA growth OD615, 2 d; at 50 µM; active compounds read high
METRIC_NAME: RAM network inhibition (%)
Answers are plain numbers, in %.

>>> df
                                   compound             metric_name  result
0          CCN(c1cccc(C)c1)c1ncnc2nc[nH]c12  RAM network inhibition    0.64
1  Oc1c(C(c2ccc(F)cc2)N2CCc3ccccc3C2)sc2ncnn12 (stereo unspecified)  RAM network inhibition    3.09
2  COC(=O)C1C(C(C)C)N(c2ccccc2)OC1(C)O (stereo unspecified)  RAM network inhibition    1.66

For each entry beneath this line, provide reported RAM network inhibition.
1. CCOC(=O)c1[nH]c2c(c1C)C(=O)CC(c1ccc(N(C)C)cc1)C2 (stereo unspecified)
2. Cc1cc(C)c(C#N)c(Oc2ccc(O)cc2)n1
3. COc1ccc(N=CC2=C(O)CC(C)(C)CC2=O)cc1

Reply:
[1.32, 2.67, 1.73]

* * *

# PROTOCOL_DETAILS: inhibitors of the yeast RAM network, pilot screen, dse1pr::URA3 reporter, 5-FOA selection (AID 869);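 also: 0% = DMSO wells with no growth and 100% = 10 µM 1-NA-PP1 with full growth; RAM network block rescues cells from 5-FOA so hits raise OD615 growth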
# TEST_CONTEXT: S. cerevisiae dse1pr::URA3 5-FOA growth, OD615, 2 d; at 10 µM; active compounds read high; strain carries analog-sensitive mutant Cbk1 kinase
Provide the reported inhibition of each item.
One number for each entry, in %.

In the examples that follow, each entry is paired with its recorded inhibition.
>>> print(df.to_string())
                                   compound  result
0  Cc1nc2ccccc2c2oc(C(=O)Nc3ccc4c(c3)OCCO4)cc12   -0.63
1      COC(=O)C1=CN(C)C=C(C(=O)OC)C1c1ccsc1    1.96

Batch request: inhibition per item, same order as input.
1. C#CC(C)(C)NC(=O)CSc1nc2c(c(=O)n(C)c(=O)n2C)n1CCCC
2. CS(=O)(=O)c1ccc2nc(NC(=O)c3ccco3)sc2c1
3. COCCNC(=O)c1cc(-c2ccc(Cl)c(Cl)c2)on1
4. CC1=NC2(CCCc3c2no[n+]3[O-])N(O)C1(C)C (centres undefined)

Reply:
1. 2.11
2. 3.1
3. 0.18
4. 1.36

Batch of 8 compounds: report inhibition for each.
1. O=C(CSc1nnc(Cc2cc(=O)[nH]c(=O)[nH]2)n1-c1ccc(F)cc1)N1CCCCC1
2. Cc1ccc(-n2ncc3c(=O)[nH]c(SCC(=O)N4CCCC4)nc32)cc1C
3. O=S(=O)(c1cccc(-n2cnnn2)c1)N1CCOCC1
4. CC(C)n1c(CCC(=O)O)ccc1-c1ccccc1
5. CCc1nnc(NC(=O)c2cccs2)s1
6. CC(C)OC(=O)c1nnc(Cc2ccc(F)cc2)o1
7. CN1CCN(C(=O)c2cn(C)c3ccc(S(=O)(=O)N(C)C4CCCCC4)cc3c2=O)CC1
8. Cn1c(C(=O)NCCN2CCN(Cc3ccccc3)CC2)cc2c(=O)n(C)c3ccccc3c21

Reply:
1. 0.87
2. 1.81
3. 1.6
4. 0.285
5. 1.29
6. 0.82
7. 0
8. -0.115
